Reported IC50 of IL-1α signaling (HEK-Blue assay) values follow for various binders
- STUDY SYSTEM: T1, human IL1RAP on the cell surface (human, UniProt Q9NPH3 21-570)
- T1 sequence (looked up): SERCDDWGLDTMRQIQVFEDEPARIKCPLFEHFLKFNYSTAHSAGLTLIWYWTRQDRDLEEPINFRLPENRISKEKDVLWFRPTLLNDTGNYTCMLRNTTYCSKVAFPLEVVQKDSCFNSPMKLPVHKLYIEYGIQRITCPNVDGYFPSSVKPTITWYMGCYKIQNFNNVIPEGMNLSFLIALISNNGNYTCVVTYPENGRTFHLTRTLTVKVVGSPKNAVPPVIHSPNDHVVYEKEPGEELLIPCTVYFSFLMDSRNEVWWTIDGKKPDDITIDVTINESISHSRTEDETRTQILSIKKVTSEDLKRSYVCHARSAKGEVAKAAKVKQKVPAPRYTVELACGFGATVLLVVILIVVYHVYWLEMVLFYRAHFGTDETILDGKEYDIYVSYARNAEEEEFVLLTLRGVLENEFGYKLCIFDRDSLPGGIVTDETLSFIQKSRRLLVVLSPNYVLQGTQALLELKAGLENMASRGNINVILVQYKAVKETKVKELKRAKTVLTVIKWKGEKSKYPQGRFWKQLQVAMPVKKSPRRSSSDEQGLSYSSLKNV
- TEST NAME: cell-based or functional assay

h48D2 VH1:VL5 (antibody, human IgG1, kappa, L234A L235A, V domains shown, Humanized; also called VL5:VH1) VH: EVQLEESGGGLVKPGGSLRLSCAASGPSLSHFDITWVRQAPGKGLEWVSTISPGVSTYYASWAKSRFTISRDNSKNTLYLQMNSLRAEDTAVYYCARGGVGSSWKAFDLWGRGTLVTVSS VL: APVLTQSPATLEASVGDRVTITCQASESISTALAWYQQKPGQPPKLLIYKASTLPSGVPSRFSGSGSGTEFTLTISDLESDDAATYYCQQGFSSGNVHNAFGGGTEVVVKR
528 nM

INPUT: Any idea what its IC50 of IL-1α signaling (HEK-Blue assay) is? The binder is h48D2 VH2:VL1 (antibody, human IgG1, kappa, L234A L235A, V domains shown, Humanized; also called VL1:VH2) VH: EVQLVESGGALVQPGGSLRLSCIVSGPSLSHFDITWFRQAPGKGLEWVATISPGVSTYYASWAKSRFTISTDTSKNTLFLQMDSLRAEDTAVYYCARGGVGSSWKAFDLWGPGTLVTVSS VL: DIVMTQSPSSLSASVGDRVTITCQASESISTALAWYQQKPGKAPKLLIYKASTLPSGVPSRFSGSGSGTDFTLTISSLQPEDFATYYCQQGFSSGNVHNAFGGGTKVVIKR
OUTPUT: ~43800 nM

INPUT: Any idea what its IC50 of IL-1α signaling (HEK-Blue assay) is? The binder is h48D2 VH1:VL1 (antibody, human IgG1, kappa, L234A L235A, V domains shown, Humanized; also called VL1:VH1) VH: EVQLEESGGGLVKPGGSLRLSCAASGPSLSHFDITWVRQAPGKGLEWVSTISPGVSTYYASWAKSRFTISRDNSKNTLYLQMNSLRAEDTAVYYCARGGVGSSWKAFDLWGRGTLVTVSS VL: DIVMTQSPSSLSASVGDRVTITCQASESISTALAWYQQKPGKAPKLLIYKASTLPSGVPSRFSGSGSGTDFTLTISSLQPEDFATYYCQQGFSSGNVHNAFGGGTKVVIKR
OUTPUT: 227 nM
